- SYSTEM: T1, Human BCMA (human, UniProt Q02223 1-54, limits assumed)
- T1 construct: Soluble analyte in SPR; construct not described; also called huBCMA; B-cell maturation antigen
- T1 sequence (looked up): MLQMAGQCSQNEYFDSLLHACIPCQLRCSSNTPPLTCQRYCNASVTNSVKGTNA
- ASSAY: SPR, IgG immobilised, 37 C
Binary call on Kd with cut-off 800 pM: strictly below means True, and equality or higher means False.

1. L3.PY/L3.KY/P6E01 (antibody, V domains shown, IgG) VH: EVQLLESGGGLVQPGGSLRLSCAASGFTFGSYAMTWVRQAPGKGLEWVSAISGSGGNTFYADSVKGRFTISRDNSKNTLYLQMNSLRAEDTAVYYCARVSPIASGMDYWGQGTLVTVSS VL: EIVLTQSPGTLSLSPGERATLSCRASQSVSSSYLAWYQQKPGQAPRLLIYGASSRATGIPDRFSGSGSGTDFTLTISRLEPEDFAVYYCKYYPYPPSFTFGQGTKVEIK
True

Lab note: next binder to report on.
Kd under 800 pM? Item: L3.PY/L1.PS/H2.QR (antibody, V domains shown, IgG) VH: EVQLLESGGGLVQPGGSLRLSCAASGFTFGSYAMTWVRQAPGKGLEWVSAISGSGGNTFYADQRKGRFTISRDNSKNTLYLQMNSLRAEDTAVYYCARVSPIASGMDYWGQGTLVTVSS VL: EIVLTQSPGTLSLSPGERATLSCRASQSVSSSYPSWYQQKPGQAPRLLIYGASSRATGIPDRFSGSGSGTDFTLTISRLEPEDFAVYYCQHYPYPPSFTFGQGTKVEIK
False
